Measured values drawn from paper PMC2688716 for this set.

# TEST_SYSTEM: Calcium, type N ion channel (Rattus norvegicus, UniProt Q02294)
# Sequence (P54287 whole entry): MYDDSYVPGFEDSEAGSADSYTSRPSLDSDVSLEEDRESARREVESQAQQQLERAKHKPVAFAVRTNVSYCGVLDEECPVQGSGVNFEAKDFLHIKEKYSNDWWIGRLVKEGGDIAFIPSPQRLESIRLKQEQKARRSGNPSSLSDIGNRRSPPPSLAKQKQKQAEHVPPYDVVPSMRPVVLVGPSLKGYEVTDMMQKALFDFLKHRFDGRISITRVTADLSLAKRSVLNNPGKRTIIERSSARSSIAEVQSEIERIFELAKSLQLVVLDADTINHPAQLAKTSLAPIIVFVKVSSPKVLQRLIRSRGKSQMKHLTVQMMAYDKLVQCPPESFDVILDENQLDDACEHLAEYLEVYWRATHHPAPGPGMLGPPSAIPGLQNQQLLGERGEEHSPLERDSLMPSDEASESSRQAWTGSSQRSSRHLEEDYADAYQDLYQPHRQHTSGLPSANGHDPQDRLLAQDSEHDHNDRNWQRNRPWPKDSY
# Sequence (P54290 945-1091, further chain): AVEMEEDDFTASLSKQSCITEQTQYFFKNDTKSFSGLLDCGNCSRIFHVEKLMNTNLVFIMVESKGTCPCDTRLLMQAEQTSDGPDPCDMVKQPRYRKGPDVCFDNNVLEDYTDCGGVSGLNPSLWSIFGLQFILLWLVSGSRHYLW
# Sequence (Q02294 whole entry): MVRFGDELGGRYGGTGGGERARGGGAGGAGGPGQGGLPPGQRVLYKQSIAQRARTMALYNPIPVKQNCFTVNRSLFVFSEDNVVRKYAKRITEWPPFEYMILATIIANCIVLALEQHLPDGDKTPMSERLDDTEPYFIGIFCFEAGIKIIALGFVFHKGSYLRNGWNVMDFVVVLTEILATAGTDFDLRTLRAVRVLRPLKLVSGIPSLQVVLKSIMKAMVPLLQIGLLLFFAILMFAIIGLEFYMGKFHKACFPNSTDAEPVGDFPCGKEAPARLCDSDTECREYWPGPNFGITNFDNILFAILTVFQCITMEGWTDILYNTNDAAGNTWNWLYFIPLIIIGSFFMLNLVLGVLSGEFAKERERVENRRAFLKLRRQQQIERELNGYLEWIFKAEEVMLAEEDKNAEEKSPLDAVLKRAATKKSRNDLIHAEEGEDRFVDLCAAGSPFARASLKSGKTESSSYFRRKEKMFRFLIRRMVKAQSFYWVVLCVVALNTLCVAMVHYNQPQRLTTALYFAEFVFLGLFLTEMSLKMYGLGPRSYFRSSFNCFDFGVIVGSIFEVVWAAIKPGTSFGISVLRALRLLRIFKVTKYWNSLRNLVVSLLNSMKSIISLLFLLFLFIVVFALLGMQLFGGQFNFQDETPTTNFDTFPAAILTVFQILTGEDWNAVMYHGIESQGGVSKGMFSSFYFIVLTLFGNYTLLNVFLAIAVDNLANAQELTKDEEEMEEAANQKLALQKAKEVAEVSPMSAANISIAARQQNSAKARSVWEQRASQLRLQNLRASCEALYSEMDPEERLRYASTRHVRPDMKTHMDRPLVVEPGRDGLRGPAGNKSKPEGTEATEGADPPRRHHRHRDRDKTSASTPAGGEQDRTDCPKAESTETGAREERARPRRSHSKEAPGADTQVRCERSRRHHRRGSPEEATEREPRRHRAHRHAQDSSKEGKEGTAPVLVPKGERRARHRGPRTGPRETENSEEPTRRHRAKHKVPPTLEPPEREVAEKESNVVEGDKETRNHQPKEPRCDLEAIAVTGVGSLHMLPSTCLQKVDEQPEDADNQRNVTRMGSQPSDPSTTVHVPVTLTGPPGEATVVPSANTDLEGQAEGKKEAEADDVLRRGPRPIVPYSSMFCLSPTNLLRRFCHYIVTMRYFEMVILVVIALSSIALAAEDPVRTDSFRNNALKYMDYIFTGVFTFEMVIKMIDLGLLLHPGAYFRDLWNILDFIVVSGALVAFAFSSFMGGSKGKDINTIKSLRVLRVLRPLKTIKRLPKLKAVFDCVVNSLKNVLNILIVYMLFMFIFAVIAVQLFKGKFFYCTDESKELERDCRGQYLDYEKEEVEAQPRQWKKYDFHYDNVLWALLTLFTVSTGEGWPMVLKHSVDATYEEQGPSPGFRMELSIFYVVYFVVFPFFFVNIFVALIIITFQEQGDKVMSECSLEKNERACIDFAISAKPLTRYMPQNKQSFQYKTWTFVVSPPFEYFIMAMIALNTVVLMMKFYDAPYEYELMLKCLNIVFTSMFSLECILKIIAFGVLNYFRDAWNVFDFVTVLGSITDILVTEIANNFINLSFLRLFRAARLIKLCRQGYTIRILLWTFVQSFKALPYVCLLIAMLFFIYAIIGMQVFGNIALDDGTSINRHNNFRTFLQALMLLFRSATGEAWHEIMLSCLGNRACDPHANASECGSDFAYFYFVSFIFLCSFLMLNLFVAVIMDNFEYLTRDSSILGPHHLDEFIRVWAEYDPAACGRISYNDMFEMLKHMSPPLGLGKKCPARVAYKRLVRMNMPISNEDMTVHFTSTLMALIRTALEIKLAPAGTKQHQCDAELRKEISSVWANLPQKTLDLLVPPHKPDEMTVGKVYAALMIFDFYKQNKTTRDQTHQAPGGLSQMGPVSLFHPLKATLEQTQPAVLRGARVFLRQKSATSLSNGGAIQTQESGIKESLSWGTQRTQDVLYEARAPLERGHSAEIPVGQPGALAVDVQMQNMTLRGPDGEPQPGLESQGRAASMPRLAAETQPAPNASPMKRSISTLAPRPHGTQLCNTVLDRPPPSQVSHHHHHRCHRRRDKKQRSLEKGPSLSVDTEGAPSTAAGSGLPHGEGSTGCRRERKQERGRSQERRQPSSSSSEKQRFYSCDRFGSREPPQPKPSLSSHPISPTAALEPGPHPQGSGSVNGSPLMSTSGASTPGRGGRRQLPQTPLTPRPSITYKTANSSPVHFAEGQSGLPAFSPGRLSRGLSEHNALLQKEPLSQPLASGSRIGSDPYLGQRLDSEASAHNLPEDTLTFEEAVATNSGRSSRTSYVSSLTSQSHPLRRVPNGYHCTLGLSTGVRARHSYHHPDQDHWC
# Sequence (P54290 25-944, further chain): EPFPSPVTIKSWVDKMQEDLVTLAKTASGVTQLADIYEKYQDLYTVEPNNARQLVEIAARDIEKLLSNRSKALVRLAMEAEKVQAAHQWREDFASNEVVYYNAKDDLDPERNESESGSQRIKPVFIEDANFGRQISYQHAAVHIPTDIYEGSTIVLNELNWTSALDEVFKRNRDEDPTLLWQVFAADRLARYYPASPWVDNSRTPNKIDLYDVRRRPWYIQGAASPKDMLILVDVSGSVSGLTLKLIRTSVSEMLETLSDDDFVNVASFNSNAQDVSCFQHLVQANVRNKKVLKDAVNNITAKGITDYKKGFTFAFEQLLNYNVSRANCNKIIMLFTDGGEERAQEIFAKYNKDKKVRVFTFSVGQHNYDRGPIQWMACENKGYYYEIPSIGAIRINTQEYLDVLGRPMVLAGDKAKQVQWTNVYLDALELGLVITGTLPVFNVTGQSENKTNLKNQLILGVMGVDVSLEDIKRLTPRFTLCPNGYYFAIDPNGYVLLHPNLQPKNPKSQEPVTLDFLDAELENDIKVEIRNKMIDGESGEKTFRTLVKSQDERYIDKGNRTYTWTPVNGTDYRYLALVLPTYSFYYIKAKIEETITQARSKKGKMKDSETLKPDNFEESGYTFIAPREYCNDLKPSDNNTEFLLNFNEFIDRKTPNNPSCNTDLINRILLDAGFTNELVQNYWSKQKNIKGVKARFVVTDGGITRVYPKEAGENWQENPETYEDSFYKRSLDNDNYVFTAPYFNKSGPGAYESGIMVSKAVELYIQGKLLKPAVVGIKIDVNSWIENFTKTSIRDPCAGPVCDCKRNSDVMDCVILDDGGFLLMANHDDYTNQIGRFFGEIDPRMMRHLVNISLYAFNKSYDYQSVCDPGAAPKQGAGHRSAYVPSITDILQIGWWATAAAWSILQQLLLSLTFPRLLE
# ASSAY: Radioligand binding, calcium channel type N
# DETAILS: 0.01 nM [125I]ω-conotoxin GVIA; nonspecific 0.1 μM ω-conotoxin GVIA; rat cerebral cortex; by NOVASCREEN; >10,000 = less than 30% displacement
pKi: −log10 of the molar value.
PARAMETER_MEASURED: pKi

I would be grateful if you could share the reported pKi for O=C(O)C(=O)O.c1ccc(CCN2CCCCC2)cc1 [AC927, N-phenethylpiperidine oxalate] .
< 5.00

* * *

# TEST_SYSTEM: Muscarinic, central receptor
# ASSAY: Radioligand binding, muscarinic central
# DETAILS: 0.15 nM [3H]QNB; nonspecific 0.1 μM atropine; rat cerebral cortex; by NOVASCREEN; >10,000 = less than 30% displacement
PARAMETER_MEASURED: Ki

I would be grateful if you could share the reported Ki for O=C(O)C(=O)O.c1ccc(CCN2CCCCC2)cc1 [AC927, N-phenethylpiperidine oxalate] .
> 10 µM
